Molecular target: cdk4/D (Homo sapiens)
Sequence (P11802 whole entry, species assumed): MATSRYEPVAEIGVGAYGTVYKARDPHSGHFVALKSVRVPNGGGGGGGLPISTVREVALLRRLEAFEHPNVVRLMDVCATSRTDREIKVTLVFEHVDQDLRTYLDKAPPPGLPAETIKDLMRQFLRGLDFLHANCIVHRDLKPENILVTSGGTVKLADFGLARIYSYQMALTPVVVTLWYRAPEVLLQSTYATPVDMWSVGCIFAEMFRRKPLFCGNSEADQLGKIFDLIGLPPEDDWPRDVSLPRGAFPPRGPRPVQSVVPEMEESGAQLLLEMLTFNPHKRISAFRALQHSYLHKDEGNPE
Sequence (P24385 whole entry partner, species assumed): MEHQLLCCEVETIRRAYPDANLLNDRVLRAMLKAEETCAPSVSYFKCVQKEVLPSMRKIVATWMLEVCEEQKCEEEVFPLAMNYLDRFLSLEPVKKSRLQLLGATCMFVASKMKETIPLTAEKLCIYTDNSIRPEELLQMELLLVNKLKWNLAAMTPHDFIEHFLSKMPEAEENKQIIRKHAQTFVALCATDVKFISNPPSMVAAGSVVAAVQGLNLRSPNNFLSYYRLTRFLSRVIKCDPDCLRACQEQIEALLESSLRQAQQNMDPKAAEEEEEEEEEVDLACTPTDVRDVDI
Test: Cyclin-dependent kinase 4 (cdk4) assay
Assay type: biochemical
Settings: Table 2, Formula II compounds; read-out: cdk4/IC50 IC50
Below, each of the molecules is paired with its reported IC50 value.

[
  {
    "Molecule": "CCNc1nc(Nc2ccccc2)ncc1/C=C/C(=O)OCC",
    "Target of assay": "cdk4/D (Homo sapiens)",
    "IC50": "2 µM"
  }
]

API: the following record is the query input.
Which IC50 is reported with cdk4/D (Homo sapiens) for this entry: `CCOC(=O)/C=C/c1cnc(Nc2ccccc2)nc1N` ?
65 µM

----------
Molecular target: cdk4/D (Homo sapiens)
Experiment: Cyclin-dependent kinase 4 (cdk4) assay
Format: biochemical
Details: Table 1; read-out: cdk4/D IC50
Reported endpoint: pIC50
Quick note: pIC50 means taking -log10 of the concentration in moles per liter.

These recorded examples may help you get a feel for the data.
[
  {
    "Compound": "O=c1ccc2cnc(Nc3ccccc3)nc2n1CCCOCc1ccccc1 [Example 38]",
    "Value reported": 5.57
  },
  {
    "Compound": "CN(C)c1ccc(Nc2ncc3ccc(=O)n(C4CCCCC4)c3n2)cc1 [Example 147]",
    "Value reported": 6.32
  }
]

Entry under review: CCn1c(=O)c(C)cc2cnc(Nc3ccc(N4CCN(C)CC4)cc3)nc21 [Example 84] . Reported pIC50?
6.74
